# System: Vero E6
# Method Description: cell viability relative to DMSO; higher = less toxic
# Condition Set: 72 h; 10 nM
Metric Name: cell viability (%)
Provide the reading as a plain figure in %.

Request: Reported cell viability for Vero E6, given CS(=O)(=O)c1ccc([C@@H](O)[C@@H](CO)NC(=O)C(Cl)Cl)cc1 [thiamphenicol] ?
Response: 99.3

Request: Reported cell viability for Vero E6, given CN1CCOC(c2ccccc2)c2ccccc2C1 (stereo not given) [nefopam] ?
Response: 103

Request: Reported cell viability for Vero E6, given `CCN(CC)CCOc1ccc(Nc2ncc3cc(-c4c(Cl)cccc4Cl)c(=O)n(C)c3n2)cc1` ?
Response: 95.3

Request: Reported cell viability for Vero E6, given CC(C)(C)c1cc(NC(=O)Nc2ccc(-c3cn4c(n3)sc3cc(OCCN5CCOCC5)ccc34)cc2)no1 [quizartinib] ?
Response: 100

Request: Reported cell viability for Vero E6, given Cc1cccc(CN2CCN(C(c3ccccc3)c3ccc(Cl)cc3)CC2)c1 (stereo not given) [meclizine] ?
Response: 105

Request: Reported cell viability for Vero E6, given Oc1c(I)cc(I)c2cccnc12 [iodoquinol] ?
Response: 106

Request: Reported cell viability for Vero E6, given CCc1nc(N)nc(N)c1-c1ccc(Cl)cc1 [pyrimethamine] ?
Response: 93

Request: Reported cell viability for Vero E6, given O=C1CN(/N=C/c2ccc([N+](=O)[O-])o2)C(=O)N1 [nitrofurantoin] ?
Response: 95.1

Request: Reported cell viability for Vero E6, given CC(=O)N[C@@H](Cc1ccc(O)cc1)C(=O)O [N-acetyl-tyrosine] ?
Response: 93.4

Request: Reported cell viability for Vero E6, given CCCCOC(=O)c1cc2c(cn1)[nH]c1ccccc12 [beta-CCB] ?
Response: 97.3

###

Provide the recorded cell viability for the entries that follow.
# Test system: HepG2
# Method Description: cell viability relative to DMSO; higher = less toxic
# Condition Set: 72 h; 10000 nM
The reply must contain the numeric value and, after it, the unit.

Request: Reported cell viability for HepG2, given Cc1cc(NC(=O)C(c2ccccc2)N2CCCc3ccccc32)no1 (stereo not drawn) ?
Response: 98.3%

Request: Reported cell viability for HepG2, given `Oc1c(I)cc(I)c2cccnc12` ?
Response: 36.1%

Request: Reported cell viability for HepG2, given `FC(F)(F)c1ccc(/C=C/c2nc(COc3ccc(CCCCn4ccnn4)cc3)co2)cc1` ?
Response: 28.1%

Request: Reported cell viability for HepG2, given `CCn1cc(C(=O)O)c(=O)c2cc(F)c(N3CCNCC3)nc21` ?
Response: 97.6%

Request: Reported cell viability for HepG2, given Cc1ccc(/C=C2/C(=O)C3(C)CCC2C3(C)C)cc1 (stereo not drawn) ?
Response: 103%

Request: Reported cell viability for HepG2, given `OCCN1C[C@H](O)[C@@H](O)[C@H](O)[C@H]1CO` ?
Response: 101%

Request: Reported cell viability for HepG2, given CCOCCOc1ccccc1C(N)=O [etosalamide] ?
Response: 92.3%

Request: Reported cell viability for HepG2, given COc1ccc(/C=C/C(=O)O)cc1 [trans-4-methoxycinnamic-acid] ?
Response: 96.3%

Request: Reported cell viability for HepG2, given `O=Nc1ccc(O)c2ncccc12` ?
Response: 33%

Request: Reported cell viability for HepG2, given `Cn1cnc(-c2cc3nccc(Oc4ccc(NC(=S)NC(=O)Cc5ccccc5)cc4F)c3s2)c1` ?
Response: 80.6%

Request: Reported cell viability for HepG2, given `CN[C@@H](C)C(=O)N[C@H](C(=O)N1CCC[C@H]1C(=O)Nc1snnc1-c1ccccc1)C1CCCCC1` ?
Response: 96%

Request: Reported cell viability for HepG2, given `Oc1cccc(-c2nc(N3CCOCC3)c3oc4ncccc4c3n2)c1` ?
Response: 62%

Request: Reported cell viability for HepG2, given `CCc1nc(C)ccc1O` ?
Response: 108%

Request: Reported cell viability for HepG2, given `O=C1[C@@H]2[C@H]3CC[C@H](C3)[C@@H]2C(=O)N1C[C@@H]1CCCC[C@H]1CN1CCN(c2nsc3ccccc23)CC1` ?
Response: 89.2%

Request: Reported cell viability for HepG2, given `CC#C[C@]1(O)CC[C@H]2[C@@H]3CCC4=CC(=O)CCC4=C3[C@@H](c3ccc(N(C)C)cc3)C[C@@]21C` ?
Response: 99%

Request: Reported cell viability for HepG2, given Clc1ccc(CSC(Cn2ccnc2)c2ccc(Cl)cc2Cl)cc1 (stereo not drawn) ?
Response: 98.1%

Request: Reported cell viability for HepG2, given `C[N+](C)(C)CCCCCNCC12CC3CC(CC(C3)C1)C2` ?
Response: 106%

Request: Reported cell viability for HepG2, given `Cc1nc2ccccn2c(=O)c1CCN1CCC(C(=O)c2ccc(F)cc2)CC1` ?
Response: 90.2%

Request: Reported cell viability for HepG2, given `CN(C)CCCNC(=O)c1ccc(-c2cc(O)c3ncccc3c2)cc1` ?
Response: 35.7%

Request: Reported cell viability for HepG2, given CCCCC(CC)CCC(CC(C)C)OS(=O)(=O)O (stereo not drawn) [sodium-tetradecyl-sulfate] ?
Response: 98.6%

Request: Reported cell viability for HepG2, given `COc1oc(=O)c2cc(N)ccc2c1Cl` ?
Response: 73.1%

Request: Reported cell viability for HepG2, given `CC1(C)C(=O)N(c2ccc(C#N)c(C(F)(F)F)c2)C(=O)N1CCCCO` ?
Response: 91.6%

Request: Reported cell viability for HepG2, given NS(=O)(=O)c1cc(C(=O)O)c(NCc2ccco2)cc1Cl [furosemide] ?
Response: 120%

Request: Reported cell viability for HepG2, given `O=C(O)C1=CCCN(CCOC(c2ccc(C(F)(F)F)cc2)c2ccc(C(F)(F)F)cc2)C1` ?
Response: 109%

Request: Reported cell viability for HepG2, given `CCCCc1nc(Cl)c(CO)n1Cc1ccc(-c2ccccc2-c2nnn[nH]2)cc1` ?
Response: 96.7%

Request: Reported cell viability for HepG2, given CCN1CCC[C@H]1CNC(=O)c1c(OC)ccc(Br)c1OC [remoxipride] ?
Response: 94.1%

Request: Reported cell viability for HepG2, given O=C(Nc1ccccc1)c1ccccc1O [salicylanilide] ?
Response: 75.6%

Request: Reported cell viability for HepG2, given `C=CC(=O)Nc1ccc2ncnc(Nc3cccc(Br)c3)c2c1` ?
Response: 65%
